Quick record: pIC50, UniProt:P36888.
Sequence (P36888 27-993): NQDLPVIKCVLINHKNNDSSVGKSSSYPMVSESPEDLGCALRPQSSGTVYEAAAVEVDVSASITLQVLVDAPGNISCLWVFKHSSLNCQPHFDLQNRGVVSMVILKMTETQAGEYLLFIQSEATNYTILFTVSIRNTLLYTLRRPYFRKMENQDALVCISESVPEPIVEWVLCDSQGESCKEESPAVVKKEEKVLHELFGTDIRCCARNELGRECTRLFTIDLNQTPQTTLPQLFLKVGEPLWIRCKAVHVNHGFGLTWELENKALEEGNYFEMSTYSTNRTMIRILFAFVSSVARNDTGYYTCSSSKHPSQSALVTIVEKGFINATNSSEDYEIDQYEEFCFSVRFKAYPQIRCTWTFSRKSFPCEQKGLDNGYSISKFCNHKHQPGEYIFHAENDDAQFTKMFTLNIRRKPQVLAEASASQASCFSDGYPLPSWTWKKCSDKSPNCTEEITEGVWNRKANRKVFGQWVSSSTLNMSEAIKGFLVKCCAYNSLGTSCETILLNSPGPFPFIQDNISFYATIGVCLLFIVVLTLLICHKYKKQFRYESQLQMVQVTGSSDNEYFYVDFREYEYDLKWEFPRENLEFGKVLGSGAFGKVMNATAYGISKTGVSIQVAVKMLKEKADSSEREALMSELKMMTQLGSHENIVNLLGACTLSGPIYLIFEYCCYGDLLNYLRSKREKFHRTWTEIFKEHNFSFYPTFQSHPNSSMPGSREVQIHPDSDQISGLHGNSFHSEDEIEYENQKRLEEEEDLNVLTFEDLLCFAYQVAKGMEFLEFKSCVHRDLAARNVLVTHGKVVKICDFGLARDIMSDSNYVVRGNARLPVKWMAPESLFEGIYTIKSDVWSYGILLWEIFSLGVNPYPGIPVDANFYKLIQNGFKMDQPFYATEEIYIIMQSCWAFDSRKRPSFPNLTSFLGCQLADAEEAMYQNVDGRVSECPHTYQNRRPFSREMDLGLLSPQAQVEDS
pIC50: −log10 of the molar value.

Completed entries (count: 7):
CCCC(C)Nc1ncc2c(O[C@@H]3CCCN(C)C3)ncc([C@H]3CC[C@H](O)CC3)c2n1 (some centres unmarked) [Compound 214] ... 5.00 to 6.00
COCC(C)Nc1ncc2c(=O)n(C3CCNCC3)cc(C3CCC(O)CC3)c2n1 (centres unmarked) [Compound 111] ... 5.00 to 6.00
O[C@H]1CC[C@H](c2cnc(OC3CCOCC3)c3cnc(Nc4ccc(-c5nn[nH]n5)cc4)nc32)CC1 [Compound 392] ... 6.00 to 7.00
O[C@H]1CC[C@H](c2cnc(OC3CCNCC3)c3cnc(NCCC(F)(F)F)nc32)CC1 [Compound 224] ... ≥ 7.00
COC[C@H](C)Nc1ncc2c(OC3CCOCC3)ncc([C@H]3CCCNC3)c2n1 [Compound 326] ... ≥ 7.00
CCCC(C)Nc1ncc2c(O[C@H]3C[C@H](O)C3)ncc([C@H]3CC[C@H](O)CC3)c2n1 (some centres unmarked) [Compound 187] ... 6.00 to 7.00
CCCCNc1ncc2c(OC3CCOCC3)ncc([C@H]3CC[C@H](O)CC3)c2n1 [Compound 104] ... ≥ 7.00

// next entry
Considering COC[C@H](C)Nc1ncc2c(C)ncc([C@H]3CC[C@H](O)CC3)c2n1 [Compound 303] , its pIC50 with UniProt:P36888 was recorded as 5.00 to 6.00
